From: the METLIN SMRT retention time set (Domingo-Almenara et al. 2019)

Assay: gradient 5% acetonitrile 3 min, to 50% in 2 min, to 85% in 15 min, held 3 min, 100 µL/min
Conditions: column: Zorbax Extend-C18 2.1 x 50 mm; eluents: water / acetonitrile, 0.1% formic acid
PROPERTY: RP-LC retention time (s)

Past entries and their recorded results:
O=C(Nc1cc(F)ccc1F)C1CCN(C(=O)c2cccn2-c2cccnc2)CC1
728
COc1cccc(C(=O)Nc2nnc(SC)s2)c1
755
COc1ccccc1NC(=O)Cn1cnc2nc(N3CCCC(C(=O)NC(C)C)C3)sc2c1=O (centres undefined)
688
O=C1CCCc2cc(S(=O)(=O)N3CCC(C(=O)Nc4cccc(F)c4)CC3)ccc2N1
770
Cc1ccc(C)c(N2CCN(C(=O)C3CCCCN3S(=O)(=O)c3ccc(F)cc3)CC2)c1 (centres undefined)
1250

a = Cc1noc(C)c1-c1ccc(S(=O)(=O)N2CCCc3ccccc32)cc1
b = Cc1nc(-c2noc(-c3ccncc3)n2)cn1CC(=O)NCc1cccc(Cl)c1
Which record would sort first by descending RP-LC retention time, a or b ? Use the label to indicate which entry you chose. a
(a: 1060 s, b: 693 s)

1 = CCc1nnc(-c2cn(CC(=O)Nc3cc(Cl)c(OC)cc3OC)c3ccccc23)o1
2 = Cc1nc2ncc(-c3ccnc(N4CCN(Cc5ccccc5)CC4)n3)c(C)n2n1
Short answer wanted: higher RP-LC retention time, 1 or 2 ? Choose, then provide that item's label. 1

P = Cc1nc(-c2cc3cccc(C)c3nc2N2CCN(C)CC2)no1
Q = CCCN1C(=O)c2cc(S(=O)(=O)N3CCCCC3C)ccc2Oc2cccnc21 (centres undefined)
I'd appreciate it if you could identify which of P and Q has the greater RP-LC retention time. Kindly give the label for the entry you pick. Q
(Q: 1170 s, P: 665 s)

====

Experiment: gradient 5% acetonitrile 3 min, to 50% in 2 min, to 85% in 15 min, held 3 min, 100 µL/min
Details: column: Zorbax Extend-C18 2.1 x 50 mm; eluents: water / acetonitrile, 0.1% formic acid
PROPERTY: RP-LC retention time (s)

CSc1cccc(NC(=O)Cn2c(C)cc(-c3nnc(C)o3)c2C)c1
790
NS(=O)(=O)c1ccc(NC(=O)C2(c3cc(-c4ccco4)on3)CC2)cc1
745
Cc1cnn(Cc2nc(-c3ccc(NC(=O)c4cc(C)on4)cc3)oc2C)c1
876
O=C(Cn1nc(N2CCOCC2)c2ccccc2c1=O)Nc1ccc(F)cc1Cl
816
COCC(=O)Nc1ccc(N2CCN(C3CCCCC3)CC2)cc1C(=O)O
603
O=C(NCC1CN(c2ccc3c(c2)OCO3)C(=O)O1)c1cccs1 (centres undefined)
678
O=C1c2ccccc2C(=O)c2c(NCCc3ccc(O)cc3)ccc(NCCc3ccc(O)cc3)c21
1180
O=C([C@@H]1C[C@H](F)CN1C(=O)Nc1ccc(F)cc1)N1CCCCC1
690
CCN1c2cc(C(=O)NCc3ccc(SC)cc3)ccc2C(=O)N2CCCCC21 (centres undefined)
856

====

Assay: gradient 5% acetonitrile 3 min, to 50% in 2 min, to 85% in 15 min, held 3 min, 100 µL/min
Details: column: Zorbax Extend-C18 2.1 x 50 mm; eluents: water / acetonitrile, 0.1% formic acid
PROPERTY: RP-LC retention time (s)

Cc1cccc(-c2nnc(-c3ccc(Cl)c(S(=O)(=O)N4CCCC4)c3)o2)c1
1150
CC(=O)N1CCc2cc(S(=O)(=O)C(C)CC(=O)N3CCN(c4ccc(Cl)cc4)CC3)ccc21 (stereo unspecified)
870
Cc1ccc(CCNC(=O)C2CCCN(S(=O)(=O)c3cc(-c4noc(C)n4)cs3)C2)cc1 (stereo unspecified)
1060
CC1CN(C(=O)CSc2cn(CC(=O)N3CCCCC3)c3ccccc23)CC(C)O1 (stereo unspecified)
812
Cn1nc(-c2ccccc2)cc1C(=O)Nc1nc2c(s1)CN(S(=O)(=O)C1CC1)CC2
854
Cc1nn(-c2nc(-c3ccccc3)cs2)c(C)c1CC(=O)Nc1ccccc1
1130

====

Experiment: gradient 5% acetonitrile 3 min, to 50% in 2 min, to 85% in 15 min, held 3 min, 100 µL/min
Settings: column: Zorbax Extend-C18 2.1 x 50 mm; eluents: water / acetonitrile, 0.1% formic acid
PROPERTY: RP-LC retention time (s)

COc1ccccc1-c1cnn2c(Nc3ccc(NC(C)=O)cc3)cc(C)nc12
593
COCCNC(=O)CSc1nccc2c1ccn2Cc1ccccc1
666
CCOC(=O)Nc1nc(CC(=O)NCCc2c[nH]c3ccccc23)cs1
680
Cc1nn(-c2ccc(C(=O)NC3CCCC3)cn2)c(C)c1C
907
Cc1c(Cl)cccc1NC(=O)N1C[C@H](c2nc(-c3ccncc3)no2)[C@@H](C)C1
827
Cc1[nH]c2ccccc2c1C(=O)C(=O)N1CC2CC(C1)c1cccc(=O)n1C2 (stereo unspecified)
612

====

Experiment: gradient 5% acetonitrile 3 min, to 50% in 2 min, to 85% in 15 min, held 3 min, 100 µL/min
Conditions: column: Zorbax Extend-C18 2.1 x 50 mm; eluents: water / acetonitrile, 0.1% formic acid
PROPERTY: RP-LC retention time (s)

Cc1ccc(CN(C)C(=O)NC(C)C)s1
804
COc1ccc(-n2c(=O)n(C)c(=O)c3cc(C(=O)Nc4ccccc4C(N)=O)cnc32)cc1
787
CNC(=O)c1cc(N(C)C)nc2c(Cl)cccc12
666

I = Cn1cnc(S(=O)(=O)NCCC2CCN(C(=O)c3ccccc3)CC2)c1
II = O=C(C1CCC1)N1CCc2sc(S(=O)(=O)N3CCN(c4ccccc4)CC3)cc2C1
Param pair: I , II . Output: the one whose RP-LC retention time is numerically greater. Mark your selection by writing its label. II

P = Cn1cnc2ccc(-c3noc(CNC(=O)c4ccccc4)n3)cc21
Q = COc1cc(C(=O)NC(C)COc2ccc(C(C)C)cc2)cc(OC)c1OC (configuration not stated)
I'm curious, which of these has a smaller RP-LC retention time number: P or Q ? Please reply using the label of the selected record. P
(P: 624 s, Q: 965 s)

A = CN1C(=O)Cc2cc(NC(=O)CN3C(=O)c4ccccc4C3=O)ccc21
B = CC1(C(=O)NCc2ccccc2)CCCN(C(=O)Nc2ccc(Br)cc2F)C1 (configuration not stated)
For this pair, A and B , which shows a numerically higher RP-LC retention time? // caller expects the label of the chosen entry B
(B: 1030 s, A: 628 s)

====

Test: gradient 5% acetonitrile 3 min, to 50% in 2 min, to 85% in 15 min, held 3 min, 100 µL/min
Conditions: column: Zorbax Extend-C18 2.1 x 50 mm; eluents: water / acetonitrile, 0.1% formic acid
PROPERTY: RP-LC retention time (s)

1 = CCOC(=O)c1ccc(Nc2c(C(=O)N3CCCCC3C)cnc3nc(C)ccc23)cc1 (centres undefined)
2 = Cc1sc2ncnc(SCc3ccco3)c2c1C
Between these two entries, 1 and 2 , state which has the higher RP-LC retention time. Answer by quoting the chosen item's label. 2

====

Assay: gradient 5% acetonitrile 3 min, to 50% in 2 min, to 85% in 15 min, held 3 min, 100 µL/min
Conditions: column: Zorbax Extend-C18 2.1 x 50 mm; eluents: water / acetonitrile, 0.1% formic acid
PROPERTY: RP-LC retention time (s)

CSCC[C@H](NC(=O)COc1cc(C)cc2oc(=O)c3c(c12)CCC3)C(=O)O
769
CN(CCNC(=O)CN1C(=O)CSc2cccn2-c2ccccc21)C1CCCCC1
670
CCC1CN2C=Nc3oc(C)c(C(=O)NCc4ccccc4Cl)c3C2=N1 (stereo not given)
681

I = C=CCNC(=O)N1CC(=O)Nc2ccccc21
II = CC1Oc2ccc(-c3csc(NC(=O)c4ccccc4)n3)cc2NC1=O (stereo not given)
Between I and II , which one shows the smaller RP-LC retention time number? Write down the label of the entry you select. I
(I: 592 s, II: 862 s)

====

Experiment: gradient 5% acetonitrile 3 min, to 50% in 2 min, to 85% in 15 min, held 3 min, 100 µL/min
Conditions: column: Zorbax Extend-C18 2.1 x 50 mm; eluents: water / acetonitrile, 0.1% formic acid
PROPERTY: RP-LC retention time (s)

Solved cases below.
O=C(CN1C(=O)CCCc2cc(S(=O)(=O)N3CCCCCC3)ccc21)N1CCCCCC1
915
CCCN1CCN(C(=O)C2=NN(c3ccc(Cl)cc3)c3ncccc3S2(=O)=O)CC1
676

a = CCOc1ccc(S(=O)(=O)N2CCCC(C(=O)NCc3cccnc3)C2)cc1 (stereo unspecified)
b = Oc1ccc(Br)cc1-c1nc2ncccn2c1Nc1cccc(C(F)(F)F)c1
For this pair, a and b , which shows a numerically higher RP-LC retention time? # answer = label of selected item b

a = Cc1cc(Cl)ccc1NC1=NS(=O)(=O)c2ccccc21
b = Cc1ccnc(N2CCC(C(=O)NCCCN3CCCC3=O)CC2)n1
Select one: a or b . Criterion: greater recorded RP-LC retention time. Please reply using the label of the selected record. a
(a: 834 s, b: 579 s)

P = COc1ccc(C(CC(=O)NCCN2CCN(C)CC2)N2Cc3ccccc3C2=O)cc1OC (stereo unspecified)
Q = Cc1cc(S(=O)(=O)N2CC[C@H](n3c(=O)n(C)c4cccnc43)C2)ccc1F
Given the listed records, identify the one among P and Q with higher RP-LC retention time. Lab note: record the label of whichever item you select. Q
